experiment: in vivo; conditions: CD1 nude, mouse, 0.5 nmol/mouse, total radioactivity, Intestines uptake
reported.endpoint: tissue uptake at 4 h (%ID/g)
Numbers only, in %ID/g.

Incoming: Fill in: tissue uptake at 4 h of Cc1ccc(CCCC(=O)NCCOCCOCCOCCOCCC(=O)NCCCC[C@H](NC(=O)CC[C@H](C(=O)O)N2CCN(CC(=O)O)CCN(CC(=O)O)CCN(CC(=O)O)CC2)C(=O)N[C@@H](CC(=O)O)C(=O)N[C@@H](CC2CCCCC2)C(=O)N[C@@H](Cc2ccccc2)C(=O)N[C@H](CO)C(=O)N[C@H](CCCNC(=N)N)C(=O)N[C@@H](Cc2ccc(O)cc2)C(=O)N[C@@H](CC(C)C)C(=O)N[C@@H](Cc2c[nH]c3ccccc23)C(=O)N[C@@H](CO)C(N)=O)cc1 [[^177Lu]Lu-uPAR-17, metal not drawn] is ___
Outgoing: 0.87
